Molecular target: T1, bovine GPR8 (bovine, UniProt Q8MJV2 1-336)
T1 sequence: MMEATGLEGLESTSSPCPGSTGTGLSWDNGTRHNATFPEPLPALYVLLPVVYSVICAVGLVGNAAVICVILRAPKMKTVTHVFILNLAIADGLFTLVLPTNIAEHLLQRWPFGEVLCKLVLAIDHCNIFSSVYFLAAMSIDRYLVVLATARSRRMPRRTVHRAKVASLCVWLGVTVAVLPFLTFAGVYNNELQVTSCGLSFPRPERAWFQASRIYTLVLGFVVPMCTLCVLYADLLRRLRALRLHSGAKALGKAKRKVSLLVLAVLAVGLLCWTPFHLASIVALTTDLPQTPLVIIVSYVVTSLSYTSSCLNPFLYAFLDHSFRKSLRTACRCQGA
Assay: cell-based or functional assay
Non-standard residues stand in square brackets, D forms with d. No end group written: not given here. Trp(6-Br) = N[C@@H](Cc1c[nH]c2cc(Br)ccc12)C(=O)O; dTrp(6-Br) = N[C@H](Cc1c[nH]c2cc(Br)ccc12)C(=O)O
Recorded IC50 of intracellular cAMP production suppression (cAMP production inhibition rate) values for a group of binders are listed next.
Please state the figure in nM; there is no need to write the unit.

Binder	Measured
WYKPAAGSHHYSVGRAAGLLSSFH (also called rat GPR7 ligand A) [Trp1-rat GPR7L(24)]	3.5

Identify IC50 of intracellular cAMP production suppression (cAMP production inhibition rate) associated with the binder [Trp(6-Br)]YKPAAGHSSYSVGRAAGLLSGLRRSPYA [LTrp(6Br)1-human GPR7L(29)]
51

Identify IC50 of intracellular cAMP production suppression (cAMP production inhibition rate) associated with the binder [dTrp(6-Br)]YKPAAGHSSYSVGRAAGLLSGLRRSPYA [DTrp(6Br)1-human GPR7L(29)]
424

Identify IC50 of intracellular cAMP production suppression (cAMP production inhibition rate) associated with the binder WYKPAAGSHHYSVGRAAGLLSSFHRFPST (also called rat GPR7 ligand B) [Trp1-rat GPR7L(29)]
14
